# tested.system: Cyclin-dependent kinase 5 (Homo sapiens) (UniProt Q00535);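 note: mean value of inhibition, with the enzyme tested as CDK5/p35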
# Sequence (Q00535 whole entry, looked up): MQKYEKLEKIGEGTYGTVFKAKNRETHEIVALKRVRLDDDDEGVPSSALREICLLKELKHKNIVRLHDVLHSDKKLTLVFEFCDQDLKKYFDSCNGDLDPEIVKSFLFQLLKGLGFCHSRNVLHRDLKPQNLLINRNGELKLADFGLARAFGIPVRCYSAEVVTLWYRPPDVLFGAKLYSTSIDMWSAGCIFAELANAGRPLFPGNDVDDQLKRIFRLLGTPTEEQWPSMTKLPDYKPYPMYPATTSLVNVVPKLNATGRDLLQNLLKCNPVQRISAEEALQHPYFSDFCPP
# settings: at 1 µM
// reported inhibition for each item listed
measure.name: inhibition

compound | measure.name | data.value
CCn1c(-c2nonc2N)nc2cncc(C(=O)N3CCNCC3)c21 | inhibition | 1.06%
CS(=O)(=O)CCNCc1ccc(-c2ccc3ncnc(Nc4ccc(OCc5cccc(F)c5)c(C(F)(F)F)c4)c3c2)o1 | inhibition | 0.07%
O=C1NC(=O)C(N2CCc3ccccc32)=C1c1ccc(Cl)cc1 | inhibition | 2.74%
CCc1cccc(NC(=O)Nc2ccc(Oc3ccc4nc(NC(=O)OC)[nH]c4c3)cc2)c1 | inhibition | -0.09%
COc1cc2ncn(-c3cc(O[C@H](C)c4ccccc4Cl)c(C(N)=O)s3)c2cc1OC | inhibition | 1.47%
CS(=O)(=O)CCN(CC#N)Cc1ccc(-c2ccc3ncnc(Nc4ccc(OCc5cccc(F)c5)c(Cl)c4)c3c2)o1 | inhibition | -2.47%
CCCN1CCC(Oc2cc(Nc3nc(Nc4cccc(F)c4C(N)=O)c4cc[nH]c4n3)c(OC)cc2Cl)CC1 | inhibition | 0.45%
COc1ccc2cc(-c3c(-c4ccncc4)nc(-c4ccc([S+](C)[O-])cc4)n3C)ccc2c1 (centres undefined) | inhibition | 1.53%
CCCN1CCC=C(c2ccc(Nc3nc(Nc4ccccc4C(N)=O)c4cc[nH]c4n3)c(C)c2)C1 | inhibition | 9.85%

====

// reported inhibition for each item listed
# tested.system: Serine/threonine-protein kinase BRSK1 (Homo sapiens) (UniProt Q8TDC3);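 note: each value is a mean percent inhibition of BRSK1 kinase activity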
# Sequence (Q8TDC3 whole entry): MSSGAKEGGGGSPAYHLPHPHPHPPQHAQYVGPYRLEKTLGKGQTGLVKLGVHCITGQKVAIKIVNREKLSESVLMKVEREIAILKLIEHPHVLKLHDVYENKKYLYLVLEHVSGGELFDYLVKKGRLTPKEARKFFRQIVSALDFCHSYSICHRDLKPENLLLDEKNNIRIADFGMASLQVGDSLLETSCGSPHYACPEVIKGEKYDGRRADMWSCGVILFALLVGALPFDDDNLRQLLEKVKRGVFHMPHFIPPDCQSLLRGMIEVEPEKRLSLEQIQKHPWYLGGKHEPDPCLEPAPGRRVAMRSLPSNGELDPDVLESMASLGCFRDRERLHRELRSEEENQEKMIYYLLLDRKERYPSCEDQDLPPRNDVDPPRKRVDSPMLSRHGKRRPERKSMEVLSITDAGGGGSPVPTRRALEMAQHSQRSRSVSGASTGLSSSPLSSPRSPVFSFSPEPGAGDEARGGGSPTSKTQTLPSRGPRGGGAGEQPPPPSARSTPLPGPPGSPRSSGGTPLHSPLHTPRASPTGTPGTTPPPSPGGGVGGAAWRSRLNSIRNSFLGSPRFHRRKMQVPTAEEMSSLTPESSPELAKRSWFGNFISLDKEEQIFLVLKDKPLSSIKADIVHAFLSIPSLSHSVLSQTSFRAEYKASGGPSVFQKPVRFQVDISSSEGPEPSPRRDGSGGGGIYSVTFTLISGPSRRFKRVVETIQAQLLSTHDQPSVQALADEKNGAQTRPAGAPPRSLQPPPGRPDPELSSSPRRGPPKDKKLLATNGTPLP
# settings: at 1 µM

smiles.representation | inhibition / %
CC(=O)Nc1cccc(C#Cc2cncnc2Nc2ccc(OCc3cccc(F)c3)c(Cl)c2)n1 | 5.34
Nc1ncnc2occ(-c3ccc(NC(=O)Nc4cccc(C(F)(F)F)c4)cc3)c12 | 10.2
Nc1nc(-c2ccccn2)c(-c2ccc3ncccc3n2)s1 | 2.4
CCCN1CCC=C(c2ccc(Nc3nc(Nc4ccccc4C(N)=O)c4cc[nH]c4n3)c(C)c2)C1 | 4.05
COc1ccc(-c2ccncc2)cc1C(N)=O | 4.66
COc1ccc(COc2ccc(Cc3cnc(N)nc3N)cc2OC)cc1 | 3.19

====

# tested.system: Tyrosine-protein kinase JAK2 (Homo sapiens) (UniProt O60674);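 note: mean percent inhibition of JAK2 activity, from the GSK PKIS kinase panel screen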
# Sequence (O60674 whole entry): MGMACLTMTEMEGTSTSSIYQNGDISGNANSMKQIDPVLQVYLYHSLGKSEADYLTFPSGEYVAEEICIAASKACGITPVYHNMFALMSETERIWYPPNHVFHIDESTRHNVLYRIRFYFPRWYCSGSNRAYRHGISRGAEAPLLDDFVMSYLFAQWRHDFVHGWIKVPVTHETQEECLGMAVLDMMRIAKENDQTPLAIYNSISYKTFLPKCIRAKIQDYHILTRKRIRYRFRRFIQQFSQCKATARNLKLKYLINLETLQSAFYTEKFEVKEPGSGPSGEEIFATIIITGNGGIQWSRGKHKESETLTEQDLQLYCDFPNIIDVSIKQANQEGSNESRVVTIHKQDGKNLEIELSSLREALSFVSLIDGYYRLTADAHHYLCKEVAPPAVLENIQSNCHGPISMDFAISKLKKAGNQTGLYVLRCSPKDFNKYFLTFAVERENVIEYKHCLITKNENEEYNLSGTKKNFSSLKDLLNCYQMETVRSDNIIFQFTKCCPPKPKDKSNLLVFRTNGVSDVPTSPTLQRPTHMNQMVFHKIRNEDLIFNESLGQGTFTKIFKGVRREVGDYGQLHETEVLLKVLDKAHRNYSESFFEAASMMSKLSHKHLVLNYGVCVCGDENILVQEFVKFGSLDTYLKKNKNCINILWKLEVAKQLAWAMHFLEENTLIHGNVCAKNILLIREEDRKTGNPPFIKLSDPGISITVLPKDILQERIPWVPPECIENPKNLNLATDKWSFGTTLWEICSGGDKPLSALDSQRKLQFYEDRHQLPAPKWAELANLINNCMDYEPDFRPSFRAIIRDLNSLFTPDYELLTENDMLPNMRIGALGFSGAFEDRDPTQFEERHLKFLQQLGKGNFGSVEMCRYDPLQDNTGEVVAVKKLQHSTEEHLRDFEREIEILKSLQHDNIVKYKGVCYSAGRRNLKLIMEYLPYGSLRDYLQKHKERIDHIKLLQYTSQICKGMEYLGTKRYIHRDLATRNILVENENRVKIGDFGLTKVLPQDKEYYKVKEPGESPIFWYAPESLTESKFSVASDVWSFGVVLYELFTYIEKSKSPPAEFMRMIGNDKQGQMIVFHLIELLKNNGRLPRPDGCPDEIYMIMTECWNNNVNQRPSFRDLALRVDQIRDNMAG
# settings: at 0.1 µM

compound | inhibition, %
CC1=C(C(=O)Nc2ccc3[nH]ncc3c2)C(c2ccc3ccccc3c2)CC(=O)N1 (stereo not given) | 2.05
N#Cc1c(NC(=O)c2cccc3ccccc23)sc2c1CCCC2 | 1.62
CS(=O)(=O)CCNCc1ccc(-c2ccc3ncnc(Nc4ccc(OCc5ccccc5)c(Cl)c4)c3c2)o1 | -0.29
Cc1nn(C)c2cc(N(C)c3ccnc(Nc4cccc(S(N)(=O)=O)c4)n3)ccc12 | 7.43
Nc1ncnc2occ(-c3ccc(NC(=O)Nc4cc(C(F)(F)F)cc(C(F)(F)F)c4)cc3)c12 | 0.74
Nc1ncnc2occ(-c3ccc(NC(=O)Nc4cccc(C(F)(F)F)c4)cc3)c12 | 1.98
Cc1cc(O)cc(C)c1/C=C/c1cncc(-c2nn[nH]n2)c1 | 1.66
CC1=C(C(=O)Nc2ccc3[nH]ncc3c2)C(c2ccc(F)cc2)NC(=O)N1 (stereo not given) | 2.59
COc1ccc(-c2ccncc2)cc1C(N)=O | 2.44
CS(=O)(=O)Nc1ccc(N/C=C2\C(=O)Nc3ccccc32)cc1 | -0.93

====

# tested.system: Serine/threonine-protein kinase SIK2 (Homo sapiens) (UniProt Q9H0K1);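 note: mean inhibition of SNF1LK2 (QIK) kinase activity, from the GSK PKIS screening panel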
# Sequence (Q9H0K1 whole entry, looked up): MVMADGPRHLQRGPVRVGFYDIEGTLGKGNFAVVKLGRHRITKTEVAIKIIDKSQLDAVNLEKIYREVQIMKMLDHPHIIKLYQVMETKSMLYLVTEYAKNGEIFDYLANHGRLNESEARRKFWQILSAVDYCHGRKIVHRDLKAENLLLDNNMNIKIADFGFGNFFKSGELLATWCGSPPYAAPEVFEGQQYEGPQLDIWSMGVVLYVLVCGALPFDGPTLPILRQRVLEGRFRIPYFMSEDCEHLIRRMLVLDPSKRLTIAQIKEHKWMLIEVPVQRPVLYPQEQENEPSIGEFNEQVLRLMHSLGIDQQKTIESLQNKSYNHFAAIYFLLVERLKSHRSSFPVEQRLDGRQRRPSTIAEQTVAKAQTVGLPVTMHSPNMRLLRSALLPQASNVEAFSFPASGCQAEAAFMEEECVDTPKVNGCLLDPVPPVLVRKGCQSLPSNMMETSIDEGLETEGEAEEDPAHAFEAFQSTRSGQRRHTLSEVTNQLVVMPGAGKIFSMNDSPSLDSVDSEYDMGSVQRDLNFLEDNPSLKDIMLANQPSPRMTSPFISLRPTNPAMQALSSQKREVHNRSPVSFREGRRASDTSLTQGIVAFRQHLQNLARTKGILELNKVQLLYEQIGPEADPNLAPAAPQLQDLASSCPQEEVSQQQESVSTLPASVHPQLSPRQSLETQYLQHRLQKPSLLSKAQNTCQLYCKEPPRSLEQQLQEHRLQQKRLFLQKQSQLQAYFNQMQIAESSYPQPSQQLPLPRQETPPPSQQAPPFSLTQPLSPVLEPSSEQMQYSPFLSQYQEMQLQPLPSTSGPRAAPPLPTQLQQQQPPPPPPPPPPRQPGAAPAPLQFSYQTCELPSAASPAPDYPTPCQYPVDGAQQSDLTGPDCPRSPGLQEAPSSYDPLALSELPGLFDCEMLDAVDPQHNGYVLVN
# settings: at 1 µM
// reported inhibition for each item listed

smiles.representation | inhibition (%)
CCCN1CCC(Oc2cc(Nc3nc(Nc4cccc(F)c4C(N)=O)c4cc[nH]c4n3)c(OC)cc2Cl)CC1 | -0.62
CN1CCC(C(=O)Nc2n[nH]c3nnc(-c4ccccc4)cc23)CC1 | 8.16
CCn1c(-c2nonc2N)nc2c(N3CCCC3)nccc21 | -6.02

====

# tested.system: Vascular endothelial growth factor receptor 2 (Homo sapiens)
# settings: at 0.1 µM
# Description: GSK_PKIS: KDR mean inhibition at 0.1 uM [Nanosyn]

smiles.representation | tested.system | inhibition
Cc1nnc(-c2ccc(C)c(-c3ccc(C(=O)Nc4cccc(C#N)c4)cc3)c2)o1 | Vascular endothelial growth factor receptor 2 (Homo sapiens) | 3.3%
Cc1nn(C)c2cc(N(C)c3ccnc(Nc4cccc(S(N)(=O)=O)c4)n3)ccc12 | Vascular endothelial growth factor receptor 2 (Homo sapiens) | 45.4%
CS(=O)(=O)CCN(CC#N)Cc1ccc(-c2ccc3ncnc(Nc4ccc(OCc5cccc(F)c5)c(Cl)c4)c3c2)o1 | Vascular endothelial growth factor receptor 2 (Homo sapiens) | 4.09%
CCn1c(-c2nonc2N)nc2ccncc21 | Vascular endothelial growth factor receptor 2 (Homo sapiens) | 1.87%
CS(=O)(=O)CCNCc1nc(-c2ccc3ncnc(Nc4ccc(F)c(Cl)c4)c3c2)cs1 | Vascular endothelial growth factor receptor 2 (Homo sapiens) | 9.85%
O=C1NC(=O)C(c2cccc(Cl)c2)=C1Nc1ccc(O)c(Cl)c1 | Vascular endothelial growth factor receptor 2 (Homo sapiens) | 3.41%
NCc1ccc(-c2nc(-c3ccc(Cl)c(O)c3)c(-c3ccncc3)[nH]2)cc1 | Vascular endothelial growth factor receptor 2 (Homo sapiens) | 69.2%
CS(=O)(=O)CCNCc1ccc(-c2ccc3ncnc(Nc4ccc(OCc5ccccc5)c(Cl)c4)c3c2)o1 | Vascular endothelial growth factor receptor 2 (Homo sapiens) | 6.23%
Nc1ncnc2occ(-c3ccc(NC(=O)Nc4cc(C(F)(F)F)cc(C(F)(F)F)c4)cc3)c12 | Vascular endothelial growth factor receptor 2 (Homo sapiens) | 46.7%
O=C1NC(=O)C(c2ccccc2Cl)=C1Nc1cccc(O)c1 | Vascular endothelial growth factor receptor 2 (Homo sapiens) | 4.45%

====

# tested.system: Tyrosine-protein kinase Lyn (Homo sapiens) (UniProt P07948);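 note: kinase tested as its LYN B splice variant, values given as mean percent inhibition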
# Sequence (P07948 2-512 limits assumed): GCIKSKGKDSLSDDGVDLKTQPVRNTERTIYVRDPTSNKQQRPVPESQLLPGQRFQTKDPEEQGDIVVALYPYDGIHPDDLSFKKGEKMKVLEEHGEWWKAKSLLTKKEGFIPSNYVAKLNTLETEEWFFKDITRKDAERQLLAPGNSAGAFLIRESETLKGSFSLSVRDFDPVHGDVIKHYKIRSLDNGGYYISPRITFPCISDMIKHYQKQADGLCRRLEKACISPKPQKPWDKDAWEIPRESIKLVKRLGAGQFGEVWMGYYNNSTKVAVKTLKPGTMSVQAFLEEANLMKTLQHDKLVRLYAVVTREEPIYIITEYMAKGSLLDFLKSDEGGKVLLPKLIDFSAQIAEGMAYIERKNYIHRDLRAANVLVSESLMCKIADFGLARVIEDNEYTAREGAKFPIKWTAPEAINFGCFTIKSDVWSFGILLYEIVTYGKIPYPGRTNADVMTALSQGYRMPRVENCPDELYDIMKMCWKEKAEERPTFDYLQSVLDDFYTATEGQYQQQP
# settings: at 1 µM
# Description: GSK_PKIS: LYN B (splice variant) mean inhibition at 1 uM [Nanosyn]
// reported inhibition for each item listed

compound | inhibition
CCCN1CCC=C(c2ccc(Nc3nc(Nc4ccccc4C(N)=O)c4cc[nH]c4n3)c(C)c2)C1 | 2.97%
COc1cc2ncn(-c3cc(O[C@H](C)c4ccccc4Cl)c(C(N)=O)s3)c2cc1OC | 23.9%
COc1ccc2cc(-c3c(-c4ccncc4)nc(-c4ccc([S+](C)[O-])cc4)n3C)ccc2c1 (stereo not given) | 6.67%
O=C1NC(=O)C(c2ccc(Cl)cc2)=C1Nc1ccc(Cl)c(C(=O)O)c1 | -0.81%
Nc1ncnc2occ(-c3ccc(NC(=O)Nc4cc(C(F)(F)F)cc(C(F)(F)F)c4)cc3)c12 | 34%
CNC(=O)c1cncc(/C=C/c2c(Cl)cccc2Cl)c1 | 43.5%
CS(=O)(=O)CCNCc1ccc(-c2ccc3ncnc(Nc4ccc(OCc5cccc(F)c5)c(C(F)(F)F)c4)c3c2)o1 | 4.94%
CCc1cccc(NC(=O)Nc2ccc(Oc3ccc4nc(NC(=O)OC)[nH]c4c3)cc2)c1 | 15.2%
Cc1cc(O)cc(C)c1/C=C/c1cncc(-c2nn[nH]n2)c1 | 73.9%
CCn1c(-c2nonc2N)nc2cncc(C(=O)N3CCNCC3)c21 | 4.29%

====

# tested.system: 5'-AMP-activated protein kinase catalytic subunit alpha-2 (Homo sapiens) (UniProt P54646)
# Sequence (P54646 whole entry, looked up): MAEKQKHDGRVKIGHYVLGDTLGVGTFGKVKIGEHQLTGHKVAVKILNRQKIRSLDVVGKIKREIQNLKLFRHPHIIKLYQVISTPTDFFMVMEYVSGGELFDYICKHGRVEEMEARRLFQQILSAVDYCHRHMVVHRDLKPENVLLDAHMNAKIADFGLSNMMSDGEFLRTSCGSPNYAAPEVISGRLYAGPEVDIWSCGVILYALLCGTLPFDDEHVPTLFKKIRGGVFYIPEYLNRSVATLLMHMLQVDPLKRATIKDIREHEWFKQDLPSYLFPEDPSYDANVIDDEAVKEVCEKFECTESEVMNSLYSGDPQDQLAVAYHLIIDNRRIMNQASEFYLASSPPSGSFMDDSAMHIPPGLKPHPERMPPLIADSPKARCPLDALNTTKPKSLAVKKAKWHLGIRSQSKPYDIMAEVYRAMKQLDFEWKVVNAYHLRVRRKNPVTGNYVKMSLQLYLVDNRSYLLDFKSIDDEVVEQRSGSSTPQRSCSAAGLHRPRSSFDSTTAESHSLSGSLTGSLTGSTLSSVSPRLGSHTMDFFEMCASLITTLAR
# settings: at 1 µM
# Description: GSK_PKIS: AMPKA2 (A2B1G1) mean inhibition at 1 uM [Nanosyn]
// reported inhibition for each item listed
measure.name: inhibition (%)

smiles.representation | data.value
CCn1c(-c2nonc2N)nc2c(C#CC(C)(C)O)nc(CN3CCCC3)cc21 | 6.62
CCN1CCC(CC(=O)Nc2n[nH]c3nc(-c4cccs4)c(Br)cc23)CC1 | 5.99
CN(C)c1cc2c(Nc3ccc4nc(Cc5ccccc5)[nH]c4c3)ncnc2cn1 | 4.85
CC(C)=Cc1cccc2c1/C(=N/Nc1ccc(S(N)(=O)=O)cc1)C(=O)N2 | 40.2
O=C1NC(=O)C(c2ccc(Cl)cc2)=C1Nc1ccc(Cl)c(C(=O)O)c1 | -0.57
Cc1cc(O)cc(C)c1/C=C/c1cncc(-c2nn[nH]n2)c1 | 4.51
Nc1ncnc2occ(-c3ccc(NC(=O)Nc4cc(C(F)(F)F)cc(C(F)(F)F)c4)cc3)c12 | 4.79
COc1cc2c(cc1Nc1nc(N3CCc4ccccc43)c3cc[nH]c3n1)N(C(=O)CN(C)C)CC2 | 3.8
CCCN1CCC(Oc2cc(Nc3nc(Nc4cccc(F)c4C(N)=O)c4cc[nH]c4n3)c(OC)cc2Cl)CC1 | 6.28
COc1ccc(-c2ccncc2)cc1C(N)=O | 4.51

====

// reported inhibition for each item listed
# tested.system: Serine/threonine-protein kinase PAK 6 (Homo sapiens);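 note: values are mean percent inhibition of PAK6 kinase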
# settings: at 1 µM
measure.name: inhibition (%)

compound | tested.system | measure.name | data.value
Nc1ncnc2occ(-c3ccc(NC(=O)Nc4cccc(C(F)(F)F)c4)cc3)c12 | Serine/threonine-protein kinase PAK 6 (Homo sapiens) | inhibition | -2.37
CC1=C(C(=O)Nc2ccc3[nH]ncc3c2)C(c2ccc(F)cc2)NC(=O)N1 (stereo unspecified) | Serine/threonine-protein kinase PAK 6 (Homo sapiens) | inhibition | -1.9
CCn1c(-c2nonc2N)nc2cncc(C(=O)N3CC[C@H](N)C3)c21 | Serine/threonine-protein kinase PAK 6 (Homo sapiens) | inhibition | 3.33
COc1cc2ncn(-c3cc(O[C@H](C)c4ccccc4Cl)c(C(N)=O)s3)c2cc1OC | Serine/threonine-protein kinase PAK 6 (Homo sapiens) | inhibition | 11.9
O=C1NC(=O)C(c2cccc(Cl)c2)=C1Nc1ccc(O)c(Cl)c1 | Serine/threonine-protein kinase PAK 6 (Homo sapiens) | inhibition | -3.45
N#Cc1c(NC(=O)c2cccc3ccccc23)sc2c1CCCC2 | Serine/threonine-protein kinase PAK 6 (Homo sapiens) | inhibition | 1.52
CCn1c(-c2nonc2N)nc2c(C#CC(C)(C)O)nc(OC[C@@H](N)c3ccccc3)cc21 | Serine/threonine-protein kinase PAK 6 (Homo sapiens) | inhibition | 91.4
COC(=O)Nc1nc2cc(Oc3ccc(NC(=O)Nc4cccc(C(=O)O)c4)cc3)ccc2[nH]1 | Serine/threonine-protein kinase PAK 6 (Homo sapiens) | inhibition | 4.26
CN(C)c1cc2c(Nc3ccc4nc(Cc5ccccc5)[nH]c4c3)ncnc2cn1 | Serine/threonine-protein kinase PAK 6 (Homo sapiens) | inhibition | -5.69
CC1=C(C(=O)Nc2ccc3[nH]ncc3c2)C(c2ccc(Cl)c(Cl)c2)CC(=O)N1 (stereo unspecified) | Serine/threonine-protein kinase PAK 6 (Homo sapiens) | inhibition | 2.05
NC(=O)c1ccc(-c2nc(-c3ccccn3)c(-c3ccc4c(c3)OCO4)[nH]2)cc1 | Serine/threonine-protein kinase PAK 6 (Homo sapiens) | inhibition | -5.81
